All figures here come from patent US6204282A.

For each entry below, report its SPECIFICITY αIIb β3/αvβ3 (specificity index) value.
Target: αllbβ3 receptor (Homo sapiens, UniProt P05106+P08514)
Sequence (P08514 32-1039): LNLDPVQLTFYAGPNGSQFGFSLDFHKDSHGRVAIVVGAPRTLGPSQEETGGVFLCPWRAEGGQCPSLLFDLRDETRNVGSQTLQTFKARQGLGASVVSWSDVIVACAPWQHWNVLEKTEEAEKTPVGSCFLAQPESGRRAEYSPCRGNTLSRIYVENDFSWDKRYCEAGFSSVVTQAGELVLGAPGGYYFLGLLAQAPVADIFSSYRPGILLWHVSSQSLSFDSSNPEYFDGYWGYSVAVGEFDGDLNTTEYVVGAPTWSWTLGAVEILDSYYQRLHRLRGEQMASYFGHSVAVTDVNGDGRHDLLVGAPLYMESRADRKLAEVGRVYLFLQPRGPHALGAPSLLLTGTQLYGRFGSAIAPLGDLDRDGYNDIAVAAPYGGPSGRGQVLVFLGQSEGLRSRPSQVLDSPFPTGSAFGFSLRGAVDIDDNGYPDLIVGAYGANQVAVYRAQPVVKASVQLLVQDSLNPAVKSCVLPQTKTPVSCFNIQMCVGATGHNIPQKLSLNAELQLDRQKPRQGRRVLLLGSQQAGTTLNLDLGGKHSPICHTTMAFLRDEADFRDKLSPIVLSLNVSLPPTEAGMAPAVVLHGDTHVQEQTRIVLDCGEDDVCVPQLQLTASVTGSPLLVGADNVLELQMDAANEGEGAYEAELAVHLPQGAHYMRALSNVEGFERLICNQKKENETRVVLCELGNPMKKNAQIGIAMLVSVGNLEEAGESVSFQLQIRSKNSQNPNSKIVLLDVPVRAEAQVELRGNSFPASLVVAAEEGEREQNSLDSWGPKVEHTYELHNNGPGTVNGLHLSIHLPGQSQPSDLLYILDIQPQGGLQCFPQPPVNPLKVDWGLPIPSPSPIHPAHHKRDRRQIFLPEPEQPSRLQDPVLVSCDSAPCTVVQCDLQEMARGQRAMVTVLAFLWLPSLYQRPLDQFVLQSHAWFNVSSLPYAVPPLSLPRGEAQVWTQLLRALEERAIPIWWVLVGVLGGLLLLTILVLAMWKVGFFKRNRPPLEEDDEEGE
Sequence (P05106 27-788): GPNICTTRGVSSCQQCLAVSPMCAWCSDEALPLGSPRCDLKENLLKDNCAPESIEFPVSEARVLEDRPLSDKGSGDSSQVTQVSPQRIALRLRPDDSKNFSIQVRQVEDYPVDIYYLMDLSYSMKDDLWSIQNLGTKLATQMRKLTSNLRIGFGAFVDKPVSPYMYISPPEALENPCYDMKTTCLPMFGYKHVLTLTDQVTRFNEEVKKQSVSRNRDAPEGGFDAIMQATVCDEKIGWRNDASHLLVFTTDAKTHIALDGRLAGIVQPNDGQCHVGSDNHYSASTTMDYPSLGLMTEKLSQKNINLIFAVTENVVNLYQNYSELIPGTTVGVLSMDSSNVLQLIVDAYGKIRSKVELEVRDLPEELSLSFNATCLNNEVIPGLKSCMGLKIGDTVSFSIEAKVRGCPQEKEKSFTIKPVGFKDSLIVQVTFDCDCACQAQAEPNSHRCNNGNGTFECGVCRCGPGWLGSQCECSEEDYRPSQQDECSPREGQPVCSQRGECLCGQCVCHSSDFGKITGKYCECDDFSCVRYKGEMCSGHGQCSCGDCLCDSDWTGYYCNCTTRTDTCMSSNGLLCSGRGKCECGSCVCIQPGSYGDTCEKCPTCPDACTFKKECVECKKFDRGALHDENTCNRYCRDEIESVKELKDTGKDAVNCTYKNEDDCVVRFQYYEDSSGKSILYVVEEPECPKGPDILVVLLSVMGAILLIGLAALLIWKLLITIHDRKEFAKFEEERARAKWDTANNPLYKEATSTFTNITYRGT
Test: similar competitive assay with purified αllbβ3 receptor and 125I-echistatin (specificity index versus αvβ3)
Format: binding
Conditions: IC50 αllbβ3 / IC50 αvβ3

Solved entries:
Let me know recorded SPECIFICITY αIIb β3/αvβ3 (specificity index) for CCCCOC(=O)N[C@@H](CNC(=O)c1ccc(CN(Cc2nc3ccccc3[nH]2)C(=O)NC(C)(C)C)cc1)C(=O)O , thanks. 1223

Let me know recorded SPECIFICITY αIIb β3/αvβ3 (specificity index) for COCC(=O)N(Cc1ccc(C(=O)NC[C@@H](NC(=O)OCc2ccccc2)C(=O)O)cc1)Cc1nc2ccccc2[nH]1 , thanks. 46

Read the next record carefully.
Let me know recorded SPECIFICITY αIIb β3/αvβ3 (specificity index) for CCOC(=O)CCC(=O)N(Cc1ccc(C(=O)NC[C@H](NC(=O)OCc2ccccc2)C(=O)O)cc1)Cc1nc2ccccc2[nH]1 , thanks. 76
